Tested on: RAW-Dual (murine macrophage reporter line)
Assay: IRF reporter (Lucia luciferase) activity fold change vs agonist alone; higher = enhanced IRF activity
Details: modulator concentration 10 µM; agonist: LPS 0.1 ug/mL
If the reported IRF reporter equals or exceeds 1, assign MET. If not, assign NOT MET.

- Compound: "Clc1cccc(Nc2nc(-c3ccccn3)cs2)c1"
  Assigned category: "NOT MET"
- Compound: "Nc1ccc(C=Cc2ccccc2)cc1"
  Assigned category: "NOT MET"
- Compound: "CC(Cc1ccc(O)c(O)c1)(NN)C(=O)O (configuration not stated)"
  Assigned category: "MET"
- Compound: "O=c1cc(-c2ccc(O)cc2)oc2cc(OC3OC(CO)C(O)C(O)C3O)cc(O)c12 (configuration not stated)"
  Assigned category: "NOT MET"
- Compound: "COc1ccc(NC(=O)CN2C(=O)c3cccc4cccc(c34)C2=O)cc1"
  Assigned category: "MET"
- Compound: "COc1cc2c(cc1OC)C1Cc3ccc(OC)c(OC)c3CN1CC2 (configuration not stated)"
  Assigned category: "MET"
- Compound: "CCN(CC)C(=O)C(=Cc1ccc(Br)cc1)NC(=O)c1ccccc1OC"
  Assigned category: "MET"
- Compound: "CC(Nc1ccc(N)cc1)=C1C(=O)c2ccccc2C1=O"
  Assigned category: "MET"
- Compound: "CN(C)CCCC1(c2ccc(F)cc2)OCc2cc(C#N)ccc21.O=C(O)C(=O)O (configuration not stated)"
  Assigned category: "MET"
- Compound: "O=C(Cn1cnc([N+](=O)[O-])n1)Nc1cc(Oc2cccc(C(F)(F)F)c2)cc([N+](=O)[O-])c1"
  Assigned category: "MET"
- Compound: "COC(=O)C1=CN(CC2CCCO2)C=C(C(=O)OC)C1c1ccccc1OC (configuration not stated)"
  Assigned category: "MET"
- Compound: "COc1ccc(Nc2nc(Nc3ccc4ncccc4c3)nc(N3CCOCC3)n2)cc1"
  Assigned category: "MET"
- Compound: "CCOc1ccccc1O[C@H](c1ccccc1)[C@H]1CNCCO1.CS(=O)(=O)O"
  Assigned category: "NOT MET"
- Compound: "Cc1c(C)n2c3c(=O)n(CC=Cc4ccccc4)c(=O)n(C)c3nc2n1CCOCCO"
  Assigned category: "MET"
- Compound: "Cc1cccc(OCCCOc2cccc3cccnc23)c1C"
  Assigned category: "MET"
- Compound: "CSCCC(NC(C)=O)C(=O)NC1CCN(c2nc(C)nc3c2CCCC3)CC1 (configuration not stated)"
  Assigned category: "MET"
- Compound: "CCOC(=O)CNS(=O)(=O)c1ccc([N+](=O)[O-])cc1"
  Assigned category: "MET"
- Compound: "CC1(C)CC(=O)C=C(Nc2ccc(Br)c(Cl)c2)C1"
  Assigned category: "MET"
- Compound: "CC1CC(=O)C2=C(C1)OC(N)=C(C#N)C2c1ccc(F)cc1 (configuration not stated)"
  Assigned category: "MET"

###

System: RAW-Dual (murine macrophage reporter line)
Assay: NF-kB reporter (SEAP) activity fold change vs agonist alone; higher = enhanced NF-kB activity
Settings: modulator concentration 10 µM; agonist: LPS 0.1 ug/mL
Measurement type: NF-kB reporter

- Molecule: "CNCC[C@H](Oc1cccc2ccccc12)c1cccs1"
  Test system: "RAW-Dual (murine macrophage reporter line)"
  Reported result: 0.8
- Molecule: "Cc1ccccc1C(=O)Nc1ccc(C(=O)N2CCCC(N(C)C)c3ccccc32)cc1 (stereo unspecified)"
  Test system: "RAW-Dual (murine macrophage reporter line)"
  Reported result: 1
- Molecule: "COc1ccc(Cn2cc3c(-c4ccc(F)cc4)nnc-3c3cc(OC)c(OC)cc32)cc1"
  Test system: "RAW-Dual (murine macrophage reporter line)"
  Reported result: 1.17
- Molecule: "CCOC(=O)N[C@@H]1CC[C@@H]2[C@@H](C1)C[C@H]1C(=O)O[C@H](C)[C@H]1[C@H]2/C=C/c1ccc(-c2cccc(F)c2)cn1"
  Test system: "RAW-Dual (murine macrophage reporter line)"
  Reported result: 0.451
- Molecule: "Cc1ccc(Cn2c(N)nc3ccccc32)cc1"
  Test system: "RAW-Dual (murine macrophage reporter line)"
  Reported result: 1.21
- Molecule: "CCCCc1c(CCC)c(=N)c2ccccc2n1C.I"
  Test system: "RAW-Dual (murine macrophage reporter line)"
  Reported result: 1.18
- Molecule: "CSC1CCN(C(=O)Nc2ccc(C)c(C)c2)C1 (stereo unspecified)"
  Test system: "RAW-Dual (murine macrophage reporter line)"
  Reported result: 0.953
- Molecule: "Cc1ccc(S(=O)(=O)n2cnc3ccccc32)cc1"
  Test system: "RAW-Dual (murine macrophage reporter line)"
  Reported result: 1.04
- Molecule: "Cc1[nH]c2ccc(Br)cc2c(=O)c1CN1CCCCC1"
  Test system: "RAW-Dual (murine macrophage reporter line)"
  Reported result: 0.97
- Molecule: "Cc1cc(N2CCCCC2)nc2ccccc12"
  Test system: "RAW-Dual (murine macrophage reporter line)"
  Reported result: 0.701
- Molecule: "COCCOC(=O)C1=C(C)NC(C)=C(C(=O)OC(C)C)C1c1cccc([N+](=O)[O-])c1 (stereo unspecified)"
  Test system: "RAW-Dual (murine macrophage reporter line)"
  Reported result: 1.05

The reported numbers originate from the supplement of paper PMC10646978.
